// reported MIC per item
- Test system: P-2c, clinical isolated drug-resistant strain PA
- measurementParameters: strain P-2c (PA)
Ends that are not written are not given here.
Entry rule: numbers only, all in µM.

API: value(readout=MIC, system=P-2c, clinical isolated drug-resistant strain PA) for record PWRLRLHL-NH2 [Compound 13] 4

GET /values?readout=MIC&system=P-2c, clinical isolated drug-resistant strain PA&item= Pro-Trp-Orn-Leu-Orn-Leu-His-Leu-NH2 (PWXLXLHL; HELM PEPTIDE1{P.W.[Orn].L.[Orn].L.H.L.[am]}$$$$V2.0; N-terminus assumed; SMILES CC(C)C[C@H](NC(=O)[C@H](Cc1c[nH]cn1)NC(=O)[C@H](CC(C)C)NC(=O)[C@H](CCCN)NC(=O)[C@H](CC(C)C)NC(=O)[C@H](CCCN)NC(=O)[C@H](Cc1c[nH]c2ccccc12)NC(=O)[C@@H]1CCCN1)C(N)=O) [Compound 9] 8

Request: MIC, test system P-2c, clinical isolated drug-resistant strain PA, entry Pro-Phe-Lys-Leu-Ser-Leu-His-Leu-NH2 (PFKLSLHL-NH2) [Compound J-1, reference compound] 32

Entry PWKLSLHL-NH2 [Compound 8] , system P-2c, clinical isolated drug-resistant strain PA: what MIC was measured? 8

# query: MIC | item PWRLRLRL-NH2 [Compound 15] | system: P-2c, clinical isolated drug-resistant strain PA 8

# credit: patent US20250345492A1
